Test system: S. cerevisiae CIT2-GFP strain, flow cytometry fluorescence, 3 h
TEST: CIT2-GFP expression modulators in yeast, SAR follow-up, flow cytometry, cherry pick 3, dose response (AID 488825)
VALUE_TYPE: EC50

Given `CNc1nc(N)c([N+](=O)[O-])c(Nc2cccc(Cl)c2)n1` , respond with its EC50.
5.72 µM
